# Tested on: SW620 human colorectal cancer cells
# assay.method.text: MTT based cell viability assay: potentiation of the growth inhibiting activity of MMS
# conditions.used: Homo sapiens, SW-620, 120 h, read-out: IC50 (nM), potentiation of the growth inhibiting activity of MMS, SW620 cells, 1.7 μg/ml MMS, 5 days (120 hours), MTT
# note: exactly 50 nM is not below, so it is No; use Yes for IC50 strictly under it

>>> label_class("O=C(c1cccc(Cn2c(=O)[nH]c(=O)c3ccccc32)c1)N1CCN(C(=O)c2ccccn2)CC1")
"No"
>>> label_class("Nc1ccc2c(c1)c(=O)[nH]c(=O)n2Cc1cccc(C(=O)N2CCN(c3ncccn3)CC2)c1")
"No"
>>> label_class("O=C(c1ccc(Cl)c(Cn2c(=O)[nH]c(=O)c3ccccc32)c1)N1CCN(C(=O)C2CCCCC2)CC1")
"Yes"
>>> label_class("O=C(c1ccc(F)c(Cn2c(=O)[nH]c(=O)c3ccccc32)c1)N1CCN(C(=O)C2CCCC2)CC1")
"No"
>>> label_class("O=C(c1cc(Cn2c(=O)[nH]c(=O)c3cc(F)ccc32)ccc1F)N1CCN(c2ccccn2)CC1")
"Yes"
>>> label_class("O=C(c1cc(Cn2c(=O)[nH]c(=O)c3c(Cl)cccc32)ccc1F)N1CCN(c2ncccn2)CC1")
"Yes"
>>> label_class("O=C(c1ccco1)N1CCN(C(=O)c2cc(Cn3c(=O)[nH]c(=O)c4ccccc43)ccc2F)CC1")
"No"

----------
# System: Human breast cancer cell line T47D
# assay.method.text: Cell based caspase-3 activity assay: potentiation of MMS induced apoptosis
# conditions.used: T47D cells, 11.1 μg/ml MMS, 24 hours, intracellular caspase-3 activity; read-out: EC50 (nM), potentiation of the apoptosis inducing activity of MMS
# From the text: Determination of the synergistic potentiation effect of 1-(3-(4-(pyrimidin-2-yl)piperazine-1-carbonyl)benzyl)quinazoline-2,4(1H,3H)-dione and analogs on MMS induced apoptosis using a cell based caspase-3 activity assay Human breast cancer cell line T47D was used to determine the potentiation effect of PARP inhibitors on the apoptosis inducing activity of DNA damaging anticancer drugs such as MMS. […] The caspase-3 activity induced by the compounds was expressed as a relative fluorescence unit (RFU). […]
assay.readout: EC50 (nM)

>>> measured_value("Cc1ccc2c(=O)[nH]c(=O)n(Cc3cccc(C(=O)N4CCN(C(=O)C5CCCC5)CC4)c3)c2c1")
3220
>>> measured_value("C[C@]1(c2nc3c(C(N)=O)cccc3[nH]2)CCCN1 [ABT-888, reference compound]")
3490
>>> measured_value("O=C(c1cccc(Cn2c(=O)[nH]c(=O)c3ccccc32)c1)N1CCN(c2ncccn2)CC1")
12

----------
# Tested on: SW620 human colorectal cancer cells
# assay.method.text: MTT based cell viability assay: potentiation of the growth inhibiting activity of MMS
# conditions.used: Homo sapiens, SW-620, 120 h, read-out: IC50 (nM), potentiation of the growth inhibiting activity of MMS, SW620 cells, 1.7 μg/ml MMS, 5 days (120 hours), MTT
assay.readout: IC50 (nM)

>>> measured_value("O=C(c1cc(Cn2c(=O)[nH]c(=O)c3cc(Cl)ccc32)ccc1F)N1CCN(c2ncccn2)CC1")
5.1
>>> measured_value("O=C(c1cc(F)cc(Cn2c(=O)[nH]c(=O)c3cc(Cl)ccc32)c1)N1CCN(c2ncccn2)CC1")
16
>>> measured_value("O=C(c1cc(Cn2c(=O)[nH]c(=O)c3cc(Cl)ccc32)ccc1F)N1CCN(c2ccccn2)CC1")
42
>>> measured_value("Cc1cccc2c(=O)[nH]c(=O)n(Cc3cccc(C(=O)N4CCN(c5ncccn5)CC4)c3)c12")
84
>>> measured_value("O=C(c1cccc(Cn2c(=O)[nH]c(=O)c3c(F)cccc32)c1)N1CCN(c2ccccn2)CC1")
15
>>> measured_value("COc1ccc(C(=O)N2CCN(c3ncccn3)CC2)cc1Cn1c(=O)[nH]c(=O)c2c(F)cccc21")
37

----------
# System: SW620 human colorectal cancer cells
# assay.method.text: MTT based cell viability assay: potentiation of the growth inhibiting activity of MMS
# conditions.used: Homo sapiens, SW-620, 120 h, read-out: IC50 (nM), potentiation of the growth inhibiting activity of MMS, SW620 cells, 1.7 μg/ml MMS, 5 days (120 hours), MTT
assay.readout: log10 IC50 (log10 of the value in nM)

>>> measured_value("Cc1cccc2c1c(=O)[nH]c(=O)n2Cc1cccc(C(=O)N2CCN(C(=O)C3CCCC3)CC2)c1")
2.60
>>> measured_value("O=C(c1cc(Cn2c(=O)[nH]c(=O)c3c(F)cccc32)ccc1F)N1CCN(c2ccccc2)CC1")
1.76
>>> measured_value("O=C(c1ccc(F)c(Cn2c(=O)[nH]c(=O)c3c(F)cccc32)c1)N1CCN(C(=O)c2ccco2)CC1")
1.79
>>> measured_value("O=C(c1ccc(F)c(Cn2c(=O)[nH]c(=O)c3cc(F)ccc32)c1)N1CCN(C(=O)C2CCC2)CC1")
1.11
>>> measured_value("O=C(c1cccc(Cn2c(=O)[nH]c(=O)c3ccccc32)c1)N1CCN(C(=O)c2cccs2)CC1")
2.03
>>> measured_value("COc1ccc2c(=O)[nH]c(=O)n(Cc3cccc(C(=O)N4CCN(c5ncccn5)CC4)c3)c2c1")
2.01

----------
# System: SW620 human colorectal cancer cells
# assay.method.text: MTT based cell viability assay: potentiation of the growth inhibiting activity of MMS
# conditions.used: Homo sapiens, SW-620, 120 h, read-out: IC50 (nM), potentiation of the growth inhibiting activity of MMS, SW620 cells, 1.7 μg/ml MMS, 5 days (120 hours), MTT
assay.readout: IC50 (nM)

>>> measured_value("O=C(c1cccc(Cn2c(=O)[nH]c(=O)c3ccccc32)c1)N1CCN(S(=O)(=O)C2CCCCC2)CC1 [Example 75]")
2660
>>> measured_value("O=C(c1cccc(Cn2c(=O)[nH]c(=O)c3ccccc32)c1)N1CCN(C(=O)C2CCCCC2)CC1 [Example 26]")
149
>>> measured_value("CCN1CCN(C(=O)c2cccc(Cn3c(=O)[nH]c(=O)c4ccccc43)c2)CC1 [Example 7]")
5270
>>> measured_value("O=C(c1cc(Cn2c(=O)[nH]c(=O)c3cc(F)ccc32)ccc1F)N1CCN(C(=O)C2CCC2)CC1 [Example 180]")
3.1

----------
# Test system: SW620 human colorectal cancer cells
# assay.method.text: MTT based cell viability assay: potentiation of the growth inhibiting activity of MMS
# conditions.used: Homo sapiens, SW-620, 120 h, read-out: IC50 (nM), potentiation of the growth inhibiting activity of MMS, SW620 cells, 1.7 μg/ml MMS, 5 days (120 hours), MTT
Counter-ions that a name gives are not always drawn.
assay.readout: IC50

>>> measured_value("COC(=O)c1cc(Cn2c(=O)[nH]c(=O)c3ccccc32)ccc1F")
"> 10000 nM"
>>> measured_value("O=C(NCc1ccccc1)c1cc(Cn2c(=O)[nH]c(=O)c3c(F)cccc32)ccc1F")
"> 10000 nM"
>>> measured_value("O=C(c1cccc(Cn2c(=O)[nH]c(=O)c3ccccc32)c1)N1CCN(c2ccc3nncn3n2)CC1")
"7030 nM"
>>> measured_value("O=C(c1cccc(Cn2c(=O)[nH]c(=O)c3cccc(F)c32)c1)N1CCN(C(=O)C2CCCCC2)CC1")
"351 nM"
>>> measured_value("O=C(c1cc(F)cc(Cn2c(=O)[nH]c(=O)c3ccccc32)c1)N1CCN(C(=O)C2CCCC2)CC1")
"177 nM"
>>> measured_value("O=C(c1cc(Cn2c(=O)[nH]c(=O)c3ccccc32)ccc1Cl)N1CCN(C(=O)C2CCCCC2)CC1")
"991 nM"
>>> measured_value("O=C(c1ccncc1)N1CCN(C(=O)c2cccc(Cn3c(=O)[nH]c(=O)c4ccccc43)c2)CC1")
"> 10000 nM"
>>> measured_value("O=C(c1cc(Cn2c(=O)[nH]c(=O)c3ccccc32)ccc1F)N1CCN(C(=O)C2CCC2)CC1")
"6.8 nM"
>>> measured_value("O=C(c1cccc(Cn2c(=O)[nH]c3c(Cl)cccc3c2=O)c1)N1CCN(c2ncccn2)CC1")
"> 10000 nM"
>>> measured_value("COc1ccc2c(c1)c(=O)[nH]c(=O)n2Cc1cccc(C(=O)N2CCN(c3ncccn3)CC2)c1")
"> 10000 nM"
>>> measured_value("O=C(c1cccc(Cn2c(=O)[nH]c(=O)c3ccccc32)c1)N1CCN(c2ncccn2)CC1 [Example 194, hydrochloride]")
"18 nM"
>>> measured_value("COc1cccc2c(=O)[nH]c(=O)n(Cc3cccc(C(=O)N4CCN(c5ncccn5)CC4)c3)c12")
"13 nM"
>>> measured_value("O=C(c1cccc(Cn2c(=O)[nH]c(=O)c3ccccc32)n1)N1CCN(c2ncccn2)CC1")
"70 nM"
>>> measured_value("O=C(c1ccc(Cl)c(Cn2c(=O)[nH]c(=O)c3cc(F)ccc32)c1)N1CCN(c2ncccn2)CC1")
"27 nM"
>>> measured_value("O=C(c1cc(Cn2c(=O)[nH]c(=O)c3c(F)cccc32)ccc1F)N1CCN(c2nccs2)CC1")
"10 nM"
>>> measured_value("O=C(c1cccc(Cn2c(=O)[nH]c(=O)c3ccccc32)c1)N1CCN(CC2CCCCC2)CC1")
"3380 nM"
>>> measured_value("COc1cccc2c1c(=O)[nH]c(=O)n2Cc1cccc(C(=O)N2CCN(c3ncccn3)CC2)c1")
"> 10000 nM"
>>> measured_value("O=C(c1cccc(Cn2c(=O)[nH]c(=O)c3c(Cl)cccc32)c1)N1CCN(C(=O)C2CCCCC2)CC1")
"87 nM"
>>> measured_value("O=C(c1ccco1)N1CCN(C(=O)c2cc(Cn3c(=O)[nH]c(=O)c4c(F)cccc43)ccc2F)CC1")
"9.5 nM"
>>> measured_value("O=C(c1cc(Cn2c(=O)[nH]c(=O)c3cc(F)ccc32)ccc1F)N1CCN(c2ncccn2)CC1")
"2.8 nM"
>>> measured_value("COc1ccc(CC(=O)Nc2cccc(Cn3c(=O)[nH]c(=O)c4ccccc43)c2)cc1OC")
"> 10000 nM"
>>> measured_value("COC(=O)c1cccc(Cn2c(=O)[nH]c(=O)c3ccccc32)c1")
"> 10000 nM"
>>> measured_value("O=C(c1cccc(Cn2c(=O)[nH]c(=O)c3ccccc32)c1)N1CCN(c2nsc3ccccc23)CC1")
"83 nM"
>>> measured_value("O=C(c1cccc(Cn2c(=O)[nH]c(=O)c3ccccc32)c1Cl)N1CCN(C(=O)C2CCCC2)CC1")
"> 10000 nM"
>>> measured_value("O=C(c1cccc(Cn2c(=O)[nH]c(=O)c3ccccc32)c1)N1CCN(c2cnccn2)CC1")
"391 nM"
>>> measured_value("O=C(c1ccccc1)N1CCN(C(=O)c2ccc(Cn3c(=O)[nH]c(=O)c4ccccc43)cc2)CC1")
"> 10000 nM"
>>> measured_value("O=C(c1ccc(F)c(Cn2c(=O)[nH]c(=O)c3c(Cl)cccc32)c1)N1CCN(C(=O)C2CCCCC2)CC1")
"78 nM"
>>> measured_value("Cc1ccc2c(c1)c(=O)[nH]c(=O)n2Cc1ccc(F)c(C(=O)N2CCN(C(=O)C3CCCCC3)CC2)c1")
"52 nM"
>>> measured_value("O=C(c1ccc(F)c(Cn2c(=O)[nH]c(=O)c3c(Cl)cccc32)c1)N1CCN(C(=O)C2CCCC2)CC1")
"48 nM"
>>> measured_value("O=C(c1cccc(Cn2c(=O)[nH]c(=O)c3cc(Br)ccc32)c1)N1CCN(C(=O)C2CCCC2)CC1")
"35 nM"
